// reported log10 of IC50 for each item listed
- Tested on: normal colonic epithelial cells NCM460
- Protocol summary: In vitro anticancer activities of complexes (Experiment 2)
- Format: cell-based
- Study conditions: NCM460, 24 hours
Short version: log10 scale, IC50, µM.

Request: # input compound: CC#[N+][Ga-3]123([N+]#CC)[O]c4cc(N(CC)CC)ccc4C=[N+]1c1ccncc1[N+]2=Cc1ccc(N(CC)CC)cc1[O]3.Cl [Complex 15] ; wanted: its log10 of IC50
Result: 2.53

---

Property: log10 IC50; scope: individual compounds
- Test system: A549
- Protocol summary: In vitro anticancer activities of complexes (Experiment 2)
- Type: cell-based, human
- Study conditions: A549, 24 hours
All values: log10 IC50 [µM].

>  <Structure notation>
C#CCN(C)c1ccc2c(c1)[O][Ga-3]13([N+]#CC)([N+]#CC)[O]c4cc(N(CC)CC)ccc4C=[N+]1C(C#N)=C(C#N)[N+]3=C2.Cl

>  <Study target>
A549

>  <log10 IC50>
0.36

$$$$

Request: Reported log10 IC50, compound CC#[N+][Ga-3]123([N+]#CC)[O]c4cc(N(CC)CC)ccc4C=[N+]1c1ccncc1[N+]2=Cc1ccc(N(CC)CC)cc1[O]3.Cl : ____
Result: 2.44

Request: Fill blank: measured log10 IC50 of the compound CC#[N+][Ga-3]123([N+]#CC)[O]c4cc(N5CCCC5)ccc4C=[N+]1C(C#N)=C(C#N)[N+]2=Cc1ccc(N2CCCC2)cc1[O]3.Cl is ____.
Result: 0.55

Request: Given the entry CC#[N+][Ga-3]123([N+]#CC)[O]c4cc(N(C)C)ccc4C=[N+]1C(C#N)=C(C#N)[N+]2=Cc1ccc(N(C)C)cc1[O]3.Cl , report its measured log10 IC50.
Result: 0.14

Request: Need log10 IC50 of CC#[N+][Ga-3]123([N+]#CC)[O]c4cc(N(CC)CC)ccc4C=[N+]1c1ccccc1[N+]2=Cc1ccc(N(CC)CC)cc1[O]3.Cl , thanks.
Result: 0.09

---

- System: HEK293 human renal epithelial cell line
- Protocol summary: Cytotoxicity, CCK-8 kit, multi-cell lines (Experiment 1)
- Assay type: cell-based
- Study conditions: HEK293, 24 hours
Measured metric: IC50
# output: number + unit

Request: Using the record for N.N.[Cl][Pt][Cl] [cisplatin, reference compound] , report its IC50.
Result: 2000 nM

---

- Test system: MDA-MB-231 highly metastatic breast cancer cell line
- Protocol summary: Cytotoxicity, CCK-8 kit, multi-cell lines (Experiment 1)
- Assay type: cell-based
- Study conditions: MDA-MB-231, 24 hours
Measured metric: IC50 (µM)
Field: numeric (µM). Do not append units.

Request: So what does the record say about IC50 for N.N.[Cl][Pt][Cl] [cisplatin, reference compound] ?
Result: 27

---

# pIC50 per record follows
- System: MCF7
- Protocol summary: In vitro anticancer activities of complexes (Experiment 2)
- Assay type: cell-based, human
- Study conditions: MCF7, 24 hours
Note on units: pIC50 is unitless, being -log10 of a concentration expressed in mol/L.

In the examples that follow, each entry is paired with its recorded pIC50.
>  <Structure notation>
C#CCN(C)c1ccc2c(c1)[O][Ga-3]13([N+]#CC)([N+]#CC)[O]c4cc(N(CC)CC)ccc4C=[N+]1C(C#N)=C(C#N)[N+]3=C2.Cl

>  <Study target>
MCF7

>  <pIC50>
5.28

$$$$
>  <Structure notation>
CC#[N+][Ga-3]123([N+]#CC)[O]c4ccccc4C=[N+]1C(C#N)=C(C#N)[N+]2=Cc1ccccc1[O]3.Cl

>  <Study target>
MCF7

>  <pIC50>
3.87

$$$$
>  <Structure notation>
CC#[N+][Ga-3]123([N+]#CC)[O]c4c(ccc5c4SCCN5C)C=[N+]1C(C#N)=C(C#N)[N+]2=Cc1ccc2c(c1[O]3)SCCN2C.Cl

>  <Study target>
MCF7

>  <pIC50>
4.21

$$$$
>  <Structure notation>
CC#[N+][Ga-3]123([N+]#CC)[O]c4cc(N(CC)CC)ccc4C=[N+]1c1ccccc1[N+]2=Cc1ccc(N(CC)CC)cc1[O]3.Cl

>  <Study target>
MCF7

>  <pIC50>
4.46

$$$$

Request: Query: pIC50; subject: CC#[N+][Ga-3]123([N+]#CC)[O]c4cc(N(C)CCCC)ccc4C=[N+]1C(C#N)=C(C#N)[N+]2=Cc1ccc(N(C)CCCC)cc1[O]3.Cl
Result: 5.76

---

- System: MCF7
- Protocol summary: In vitro anticancer activities of complexes (Experiment 2)
- Type: cell-based, human
- Study conditions: MCF7, 24 hours
Rule: IC50 below 40 µM gives rule met. Equal to or above 40 µM gives rule not met.

>  <Structure notation>
CC#[N+][Ga-3]123([N+]#CC)[O]c4cc5c(cc4C=[N+]1C(C#N)=C(C#N)[N+]2=Cc1cc2c(cc1[O]3)N(C)CCS2)SCCN5C.Cl

>  <Class>
rule not met

$$$$

We now examine a further compound.
Request: Would you kindly verify if IC50 of CC#[N+][Ga-3]123([N+]#CC)[O]c4cc(N5CCCC5)ccc4C=[N+]1C(C#N)=C(C#N)[N+]2=Cc1ccc(N2CCCC2)cc1[O]3.Cl is strictly less than 40 µM?
Result: rule met

---

- Test system: normal colonic epithelial cells NCM460
- Protocol summary: In vitro anticancer activities of complexes (Experiment 2)
- Format: cell-based
- Study conditions: NCM460, 24 hours
pIC50: −log10 of the molar value.
Cut-off 5 on pIC50, inclusive. At or above means fulfilled; below means not fulfilled.

Field: example entries. Status: answers known.
>  <Structure notation>
CC#[N+][Ga-3]123([N+]#CC)[O]c4cc5c(cc4C=[N+]1C(C#N)=C(C#N)[N+]2=Cc1cc2c(cc1[O]3)N(C)CCS2)SCCN5C.Cl

>  <Class>
not fulfilled

$$$$
>  <Structure notation>
C#CCN(C)c1ccc2c(c1)[O][Ga-3]13([N+]#CC)([N+]#CC)[O]c4cc(N(C)CC#C)ccc4C=[N+]1C(C#N)=C(C#N)[N+]3=C2.Cl

>  <Class>
not fulfilled

$$$$
>  <Structure notation>
CC#[N+][Ga-3]123([N+]#CC)[O]c4ccccc4C=[N+]1C(C#N)=C(C#N)[N+]2=Cc1ccccc1[O]3.Cl

>  <Class>
not fulfilled

$$$$
>  <Structure notation>
CC#[N+][Ga-3]123([N+]#CC)[O]c4cc(N(C)C)ccc4C=[N+]1C(C#N)=C(C#N)[N+]2=Cc1ccc(N(C)C)cc1[O]3.Cl

>  <Class>
fulfilled

$$$$
>  <Structure notation>
C#CCN(C)c1ccc2c(c1)[O][Ga-3]13([N+]#CC)([N+]#CC)[O]c4cc(N(CC)CC)ccc4C=[N+]1C(C#N)=C(C#N)[N+]3=C2.Cl

>  <Class>
fulfilled

$$$$

Request: Does pIC50 meet or surpass 5 for CC#[N+][Ga-3]123([N+]#CC)[O]c4cc(N(C)CCCC)ccc4C=[N+]1C(C#N)=C(C#N)[N+]2=Cc1ccc(N(C)CCCC)cc1[O]3.Cl ?
Result: not fulfilled

Request: Say whether CC#[N+][Ga-3]123([N+]#CC)[O]c4cc(N(CC)CC)ccc4C=[N+]1c1ccccc1[N+]2=Cc1ccc(N(CC)CC)cc1[O]3.Cl shows pIC50 of 5 or more.
Result: not fulfilled

Request: Is pIC50 for CC#[N+][Ga-3]123([N+]#CC)[O]c4cc(N5CCCC5)ccc4C=[N+]1C(C#N)=C(C#N)[N+]2=Cc1ccc(N2CCCC2)cc1[O]3.Cl at or above 5?
Result: not fulfilled

Request: Assess whether reported pIC50 for CC#[N+][Ga-3]123([N+]#CC)[O]c4c(ccc5c4SCCN5C)C=[N+]1C(C#N)=C(C#N)[N+]2=Cc1ccc2c(c1[O]3)SCCN2C.Cl sits at 5 or higher.
Result: not fulfilled

Request: Assess whether reported pIC50 for CC#[N+][Ga-3]123([N+]#CC)[O]c4ccccc4C=[N+]1c1ccccc1[N+]2=Cc1ccccc1[O]3.Cl sits at 5 or higher.
Result: not fulfilled

---

- Test system: A549
- Protocol summary: In vitro anticancer activities of complexes (Experiment 2)
- Type: cell-based, human
- Study conditions: A549, 24 hours
- Description: The cell lines used in the experiments were obtained from Peking University.
// NB: equality with 80 µM counts as false (0); only IC50 strictly below is true (1)

Completed entries (count: 5):
>  <Structure notation>
CC#[N+][Ga-3]123([N+]#CC)[O]c4cc5c(cc4C=[N+]1C(C#N)=C(C#N)[N+]2=Cc1cc2c(cc1[O]3)N(C)CCS2)SCCN5C.Cl

>  <Class>
true (1)

$$$$
>  <Structure notation>
C#CCN(C)c1ccc2c(c1)[O][Ga-3]13([N+]#CC)([N+]#CC)[O]c4cc(N(C)CC#C)ccc4C=[N+]1C(C#N)=C(C#N)[N+]3=C2.Cl

>  <Class>
false (0)

$$$$
>  <Structure notation>
CC#[N+][Ga-3]123([N+]#CC)[O]c4cc(N(C)CCCC)ccc4C=[N+]1C(C#N)=C(C#N)[N+]2=Cc1ccc(N(C)CCCC)cc1[O]3.Cl

>  <Class>
true (1)

$$$$
>  <Structure notation>
CC#[N+][Ga-3]123([N+]#CC)[O]c4ccccc4C=[N+]1C(C#N)=C(C#N)[N+]2=Cc1ccccc1[O]3.Cl

>  <Class>
true (1)

$$$$
>  <Structure notation>
CC#[N+][Ga-3]123([N+]#CC)[O]c4ccccc4C=[N+]1c1ccccc1[N+]2=Cc1ccccc1[O]3.Cl

>  <Class>
true (1)

$$$$

Moving on to the next compound.
Request: Is 80 µM strictly greater than the compound's reported IC50? compound: CC#[N+][Ga-3]123([N+]#CC)[O]c4c(ccc5c4SCCN5C)C=[N+]1C(C#N)=C(C#N)[N+]2=Cc1ccc2c(c1[O]3)SCCN2C.Cl
Result: false (0)
